test system: LU99A; assay: relative viability (nuclei count vs DMSO), 5 days (fraction); higher = more cells survive; conditions: first compound 0.2 µM
# if measured relative viability < 0.6: MET  # else: NOT MET

Item COCC1(CO)C(=O)C2CCN1CC2 (stereo unspecified) [PRIMA-1MET] + C[C@]1(O)C[C@@H](c2nc(-c3ccc4ccc(-c5ccccc5)nc4c3)c3c(N)nccn32)C1 [Linsitinib] (partner 1 µM) : relative viability beneath 0.6, strictly?
NOT MET

Item COCC1(CO)C(=O)C2CCN1CC2 (stereo unspecified) [PRIMA-1MET] + O=C(CCCCCCC(=O)Nc1ccccc1)NO [Vorinostat] (partner 1 µM) : relative viability beneath 0.6, strictly?
NOT MET

Item COCC1(CO)C(=O)C2CCN1CC2 (stereo unspecified) [PRIMA-1MET] + Cc1nc(NC(=O)N2CCC[C@H]2C(N)=O)sc1-c1ccnc(C(C)(C)C(F)(F)F)c1 [Alpelisib] (partner 2 µM) : relative viability beneath 0.6, strictly?
NOT MET

Item COCC1(CO)C(=O)C2CCN1CC2 (stereo unspecified) [PRIMA-1MET] + CC(=O)c1c(C)c2cnc(Nc3ccc(N4CCNCC4)cn3)nc2n(C2CCCC2)c1=O [Palbociclib] (partner 0.5 µM) : relative viability beneath 0.6, strictly?
MET

Item COCC1(CO)C(=O)C2CCN1CC2 (stereo unspecified) [PRIMA-1MET] + CS(=O)(=O)N1CCN(Cc2cc3nc(-c4cccc5[nH]ncc45)nc(N4CCOCC4)c3s2)CC1 [Pictilisib] (partner 1 µM) : relative viability beneath 0.6, strictly?
MET
